This collection of values is drawn from patent US20220195023A1.

Target: (NVDP)3(NANP)2 (Plasmodium falciparum)
Test: SPR, antibody on chip
quantity-name: Kd

# input Returns the measured Kd for the input binder. Input: AB-007030 (antibody, V domains shown) VH: QMQLVESGGGVVQPGRSLRLSCTASGFTFSTYAMHWVRQSPGQGLEWVAVISYHSTNKYYADSVRGRFTISRDNSKNTLYLQMNSLRAEDTAVYYCARDGYSSSFFDFWGQGTLVTVSS VL: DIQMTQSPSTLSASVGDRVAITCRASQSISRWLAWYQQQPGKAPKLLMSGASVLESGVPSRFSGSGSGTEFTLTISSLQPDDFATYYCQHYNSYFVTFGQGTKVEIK
# output 2570 nM
